Test system: tetA promoter (PtetA)-lacZ reporter in E. coli KM3
Format: cell-based
Details: M9 assay plates, no inducer, 84 hr at 30° C., colony color intensity by ImageJ
metric name: Control 84 hr (colony color intensity, background activity without inducer)
Lab note: record just the number, no unit beside it.

Control 84 hr (colony color intensity, background activity without inducer) for L6-1B03 (protein, Sulfonylurea responsive repressor L6-1B03) MGSRLDKSKVINSALELLNEVGIEGLTTRKLAQKLGVEQPTLYWHVKNKRALLDALAIEMMDRHATHICPLEGESWQDFLRNNAKSMRCALLSHRDGAKVCLGTRWTEQQYEAAENMLAFLCQQGFSLENALYAVSAVRVFTLGCVLFDQESQVAKEERETPTTASMPPLLRQAWELKDHQGAEPAFLFGLELIICGLEKQLKCESGS ?
6.6

The measurements presented in this section are drawn from patent US8580556B2.
